Consider the following compounds; for each one, report its pIC50.
target: Aldo-keto reductase family 1 member C3 (Homo sapiens); test: Inhibition of human AKR1C3 expressed in Escherichia coli BL21(DE3) pLysS cells using S-tetralol as substrate
Sequence (P42330 whole entry): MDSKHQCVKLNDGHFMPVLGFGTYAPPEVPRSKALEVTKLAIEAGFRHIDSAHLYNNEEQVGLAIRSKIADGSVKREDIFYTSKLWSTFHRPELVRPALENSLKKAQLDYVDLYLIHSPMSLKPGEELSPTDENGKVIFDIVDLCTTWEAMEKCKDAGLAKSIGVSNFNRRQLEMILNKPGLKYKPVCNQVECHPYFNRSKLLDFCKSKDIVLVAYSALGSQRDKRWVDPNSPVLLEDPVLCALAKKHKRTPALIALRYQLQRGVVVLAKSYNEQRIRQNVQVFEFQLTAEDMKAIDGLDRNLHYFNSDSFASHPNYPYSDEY
Bear in mind: pIC50 is minus log10 of a mol/L concentration; give just that figure.

Memo: `CCCCC/C=C\C/C=C\CCCCCCCC(=O)O` , reported pIC50: 6.16

pIC50 reported for this compound `CCCCC/C=C/C/C=C/C/C=C/C/C=C/CCCC(=O)O` : 6.16

----------
molecular target: Aldo-keto reductase family 1 member C2 (Homo sapiens); experiment: Inhibition of AKR1C2 (unknown origin) using 9,10-phenanthrenequinone as substrate
Sequence (P52895 whole entry): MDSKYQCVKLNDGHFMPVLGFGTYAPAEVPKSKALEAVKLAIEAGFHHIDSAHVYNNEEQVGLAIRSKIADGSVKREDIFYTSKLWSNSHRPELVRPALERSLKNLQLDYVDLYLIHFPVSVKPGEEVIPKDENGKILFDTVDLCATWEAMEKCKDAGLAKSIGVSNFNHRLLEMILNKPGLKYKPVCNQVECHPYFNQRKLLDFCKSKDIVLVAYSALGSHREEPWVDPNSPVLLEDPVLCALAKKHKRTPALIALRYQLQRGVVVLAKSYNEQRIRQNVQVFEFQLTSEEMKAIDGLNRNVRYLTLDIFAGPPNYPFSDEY
measured_parameter: pIC50
Expect pIC50 as a plain number equal to -log10 of the molar concentration.

Value of pIC50 reported for the molecule COc1ccc2c(c1)c(CC(=O)O)c(C)n2C(=O)c1ccc(Cl)cc1 [INDOMETHACIN] is 4.30
